Tested on: SNB-19 CNS
MEASUREMENT_NOTES: NCI-60 one-dose screen, 48 h
EXPERIMENTAL_CONTEXT: 10 µM unless noted
This is part of a sample that, as a whole, favours compounds with a hit. Of some 83,000 tested, about 20% had one in any assay. Active and inactive are the calls of the source. How the source made its calls: active means growth percent below 10; inactive means the rest.
Possible outcomes: Y = active, N = inactive

[[record]]
molecule = "C#Cc1cccc(Nc2ncnc3cc(OCCOC)c(OCCOC)cc23)c1"
classification = "N"

[[record]]
molecule = "C/C(=C(/c1ccc(Cl)cc1)c1ccc(OCCN2CCCCCC2)cc1)c1ccccc1"
classification = "N"

[[record]]
molecule = "CCN1CCN(Cc2ccc(-c3cc4c(N[C@H](C)c5ccccc5)ncnc4[nH]3)cc2)CC1"
classification = "N"

[[record]]
molecule = "COc1cnc2c(c1)C(=O)c1c-2n(CCCNC2=NCCS2)c(=O)c2cc(Cl)ccc12"
classification = "Y"

[[record]]
molecule = "O=S1(=O)OC(c2cc(Cl)c(O)c(Br)c2)(c2cc(Cl)c(O)c(Br)c2)c2ccccc21"
classification = "N"

[[record]]
molecule = "O=C(Nc1cn[nH]c1-c1nc2ccc(CN3CCOCC3)cc2[nH]1)NC1CC1"
classification = "N"

[[record]]
molecule = "Clc1nc(Cl)c2ncn(CC#CCn3cnc4c(Cl)nc(Cl)nc43)c2n1"
classification = "N"

[[record]]
molecule = "COc1cc2c(cc1OCCCCN1CCN(CC(=O)Nc3ccc(Cl)cc3C(=O)c3ccccc3Cl)CC1)N=CC1CCCN1C2=O (centres undefined)"
classification = "Y"

[[record]]
molecule = "CN1[C@@H]2CC[C@H]1/C(=C\\c1ccccc1)C1=C2[C@@H](c2ccccc2)C(C#N)=C(N)O1"
classification = "N"

[[record]]
molecule = "COc1ccc(Br)cc1NC(=O)Nc1cccc2c1ccn2Cc1ccnc(N)c1"
classification = "N"

[[record]]
molecule = "CCOC(=O)Sc1ncnc2nc[nH]c12"
classification = "N"

[[record]]
molecule = "CC[C@@H]1C(=O)N(C)c2cnc(Nc3ccc(C(=O)NC4CCN(C)CC4)cc3OC)nc2N1C1CCCC1"
classification = "N"

[[record]]
molecule = "CC(=O)c1cnc2ccc(-c3cc(Cl)c(O)c(Cl)c3)nc2c1NC1CCC(CN(C)C)CC1 (centres undefined)"
classification = "Y"

[[record]]
molecule = "C=CC(=O)Nc1cc2c(Nc3ccc(F)c(Cl)c3)ncnc2cc1C#CC(C)(C)N1CCN(C)CC1"
classification = "Y"

[[record]]
molecule = "COc1cc(CCc2cc(NC(=O)c3ccc(N4C[C@@H](C)N[C@@H](C)C4)cc3)n[nH]2)cc(OC)c1"
classification = "N"

[[record]]
molecule = "O=C1CC(c2cccc(F)c2)c2c(n[nH]c2-c2ccc(Cl)cc2)N1 (centres undefined)"
classification = "N"

[[record]]
molecule = "Cc1cc(C2(c3ccc(O)c(C)c3)OS(=O)(=O)c3ccccc32)ccc1O"
classification = "N"

[[record]]
molecule = "COc1cc2ncnc(Nc3ccc(F)c(Cl)c3)c2cc1NC(=O)/C=C/CN1CCCCC1"
classification = "Y"

[[record]]
molecule = "CCN1CCN(c2cc(C)nc(N(CCCNc3ccnc4cc(Cl)ccc34)Cc3ccc4c(c3)OCO4)n2)CC1"
classification = "N"


---

System: HT29 colon
MEASUREMENT_NOTES: NCI-60 one-dose screen, 48 h (100 = growth as untreated, 0 = no growth, -100 = all killed)
EXPERIMENTAL_CONTEXT: 10 µM unless noted
About 83,000 compounds went through this panel and 20% of them were active in at least one assay; those are over-represented in the sample as a whole.
Outcome label depends on growth relative to 10%: at/above gives True, below gives False.

[[record]]
compound = "O=C(c1c(F)ccc(NS(=O)(=O)N2CC[C@@H](F)C2)c1F)c1c[nH]c2ncc(-c3cnc(C4CC4)nc3)cc12"
classification = "False"

[[record]]
compound = "Nc1ncnc2c1c(-c1cccc(OCc3ccccc3)c1)cn2C1CC(CN2CCC2)C1 (stereo not drawn)"
classification = "False"

[[record]]
compound = "O=C(Cn1c(=O)ccn(CCCCCCCCOc2ccc(Br)cc2)c1=O)Nc1ccc(Oc2ccc(Cl)cc2)cc1"
classification = "True"

[[record]]
compound = "Cc1cc(C2(c3ccc(O)c(C)c3)OS(=O)(=O)c3ccccc32)ccc1O"
classification = "True"

[[record]]
compound = "CNC(=O)c1c(C)oc2cc(Oc3ncnc4cc(OC)c(OC)cc34)ccc12"
classification = "True"

[[record]]
compound = "O=C1CC(c2ccc(Cl)cc2)c2ncn(-c3cccc(Cl)c3)c2N1 (stereo not drawn)"
classification = "True"

[[record]]
compound = "Clc1ccc2c(NCCNc3nc(N4CCCC4)nc4ccccc34)ccnc2c1"
classification = "False"

[[record]]
compound = "O=C(COc1ccc(/C=C2\\Cc3ccc(Cl)cc3C2=O)cc1)Nc1nccs1"
classification = "True"

[[record]]
compound = "CN(C)CCOC(=O)Nc1nc2ccc(Sc3ccccc3)cc2[nH]1"
classification = "False"

[[record]]
compound = "Cc1cc2c(-c3nc4ccccn4c3NC3CCCCC3)c(O)c(O)cc2c(O)c1-c1c(C)cc2c(-c3nc4ccccn4c3NC3CCCCC3)c(O)c(O)cc2c1O"
classification = "True"

[[record]]
compound = "Clc1ccc(/C=C/c2cc(N3CCOCC3)c3cc(Cl)c(Cl)cc3n2)cc1"
classification = "True"

[[record]]
compound = "NC[C@@](O)(c1ccc(Cl)cc1)c1ccc(-c2cn[nH]c2)cc1"
classification = "False"

[[record]]
compound = "COc1cc(-c2nc(C(=O)Nc3ccc(C)cc3)nn2-c2ccc(F)c(F)c2)cc(OC)c1OC"
classification = "True"

[[record]]
compound = "Cc1ccc(C(=O)Nc2ccc(CN3CCN(C)CC3)c(C(F)(F)F)c2)cc1C#Cc1cnc2cccnn12"
classification = "False"

[[record]]
compound = "Cc1nc(-c2cn3c(n2)-c2ccc(-c4cnn(C(C)(C)C(N)=O)c4)cc2OCC3)n(C(C)C)n1"
classification = "True"

[[record]]
compound = "Clc1nc(Cl)c2ncn(CC#CCn3cnc4c(Cl)nc(Cl)nc43)c2n1"
classification = "False"

[[record]]
compound = "NS(=O)(=O)c1ccc(CCN2C(=O)/C(=C\\c3ccc(Cl)cc3)C=C2c2ccc3ccccc3c2)cc1"
classification = "True"

[[record]]
compound = "C[C@@H](Nc1cc(F)cc(F)c1)c1cc(C(=O)N(C)C)cc2c(=O)cc(N3CCOCC3)oc12"
classification = "True"

[[record]]
compound = "COc1c(OCCCN2CCOCC2)ccc2c3n(c(=NC(=O)c4cnc(N)nc4)nc12)CCN3"
classification = "False"

[[record]]
compound = "CCCc1cc2cc(-n3nc(C)c4c3CC(C)(C)CC4=O)cc(NC3CCC(O)CC3)c2c(=O)[nH]1 (stereo not drawn)"
classification = "False"

[[record]]
compound = "COc1cccc(NC(=O)Nc2ccc(Nc3ncnc4sc5c(c34)CCN(C(=O)CCl)C5)cc2)c1"
classification = "True"

[[record]]
compound = "Cc1cc(N2CCOCC2)nc(N(CCNc2ccnc3cc(Cl)ccc23)Cc2cccs2)n1"
classification = "False"

[[record]]
compound = "CC(=O)OCCC/C(=C\\c1ccc2ccccc2c1)[N+](=O)[O-]"
classification = "False"

[[record]]
compound = "Cc1ccc(NC(=O)c2ccc(CN3CCN(C)CC3)cc2)cc1Nc1nc(-c2cccnc2)cs1"
classification = "False"

[[record]]
compound = "O=[N+]([O-])c1cc(Br)cc2c1[nH]c1ccc(Br)cc12"
classification = "True"

[[record]]
compound = "Cc1cnc(Nc2ccc(OCCN3CCCC3)cc2)nc1Nc1cccc(S(=O)(=O)NC(C)(C)C)c1"
classification = "False"

[[record]]
compound = "CCOc1ccc(N=C(C)Nc2ccc(OCC)cc2)cc1"
classification = "True"

[[record]]
compound = "CCc1nc2cc(/C=C/C(=O)NO)ccc2c(=O)n1CCc1ccc(OC)cc1"
classification = "False"

[[record]]
compound = "CC1(O)CC(c2nc(-c3ccc4ccc(-c5ccccc5)nc4c3)c3c(N)nccn23)C1 (stereo not drawn)"
classification = "False"

[[record]]
compound = "COc1cc(N2CCC(N(C)C)CC2)ccc1Nc1ncc(Cl)c(Nc2ccccc2P(C)(C)=O)n1"
classification = "False"

[[record]]
compound = "C=CC(=O)N(C)[C@H]1C[C@H]2OC(C)(C1OC)n1c3ccccc3c3c4c(c5c6ccccc6n2c5c31)C(=O)NC4 (stereo partly drawn)"
classification = "False"

[[record]]
compound = "CNC(=O)c1cc(Oc2ccc(NC(=O)Nc3ccc(Cl)c(C(F)(F)F)c3)c(F)c2)ccn1"
classification = "False"

[[record]]
compound = "CCOc1cc2ncc(C#N)c(Nc3ccc(OCc4ccccn4)c(Cl)c3)c2cc1NC(=O)/C=C/CN(C)C"
classification = "False"

[[record]]
compound = "CCN(CCN(C)C)C(=O)CNCc1cc(C(N)=O)ccn1"
classification = "True"

[[record]]
compound = "C1=C\\COCc2cc(ccc2OCCN2CCCC2)Nc2nccc(n2)-c2cccc(c2)COC/1"
classification = "False"

[[record]]
compound = "CCc1ccc(/C=C/c2ccc(O)c3ncccc23)[n+](C)c1"
classification = "True"

[[record]]
compound = "O=c1nc2c(-c3nc4ccccc4s3)n[nH]n2c2sc3c(c12)CCCC3"
classification = "True"

[[record]]
compound = "CC(C)Nc1cc(-c2c[nH]c(C(=O)N[C@H](CO)c3cccc(Cl)c3)c2)c(Cl)cn1"
classification = "False"

